The measurements presented in this section are drawn from paper PMC8909107.

- TARGET ENTITY: KV1.3 channels (L929 fibroblasts stably expressing KV1.3) (Mus musculus)
- Construct: expressed in transfected cells
- Sequence (P16390 whole entry): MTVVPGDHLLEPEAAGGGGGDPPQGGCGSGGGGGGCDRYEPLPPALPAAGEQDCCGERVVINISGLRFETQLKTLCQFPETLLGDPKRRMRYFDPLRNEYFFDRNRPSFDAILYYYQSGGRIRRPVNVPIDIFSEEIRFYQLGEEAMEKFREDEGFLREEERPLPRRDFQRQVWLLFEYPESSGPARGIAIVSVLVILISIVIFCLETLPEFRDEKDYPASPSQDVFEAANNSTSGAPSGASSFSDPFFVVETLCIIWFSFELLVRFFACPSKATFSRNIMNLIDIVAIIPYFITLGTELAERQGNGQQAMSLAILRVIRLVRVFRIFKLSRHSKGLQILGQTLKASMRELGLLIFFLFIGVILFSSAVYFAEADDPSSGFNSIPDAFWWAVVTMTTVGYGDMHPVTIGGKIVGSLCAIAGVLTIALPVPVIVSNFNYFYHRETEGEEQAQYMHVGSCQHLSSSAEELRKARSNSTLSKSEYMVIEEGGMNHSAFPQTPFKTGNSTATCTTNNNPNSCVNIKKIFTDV
- TEST SUMMARY: Patch-clamp (QPatch HTX), run-down of Kv1.3 currents after overnight exposure
- Type: cell-based
- APPLIED CONDITIONS: L929-KV1.3 cells, overnight exposure 0.1, 1 or 10 μM; current density (pA/pF) at pulses 18-20 normalized to control; n = 13; read-out: IC50 (50% suppression) from normalized current density
- Procedure: The effects of the peptides NOTA-KCNA3P and EgK5 on KV1.2, KV1.3 and KV1.5 [19] channels were evaluated by patch-clamp as detailed in the Supplementary Materials (Supplementary Figure S3) using a QPatch HTX automated electrophysiology platform. […] [18F]AlF-NOTA-KCNA3P was between 8.2 - 8.3 min. […] The radiochemical purity of [18F]AlF-NOTA-KCNA3P was assessed by analytical radio-HPLC (Aeris™ 5µm PEPTIDE XB-C18, 100 Å, 250 x 4.6 mm; 1 ml / min, λ = 220 nm). […]
Bridges are numbered along the chain shown (N, C = ends). Where no end group is shown, it is not given here. The star is where a group is joined. NOTA = O=C(O)CN1CCN(CC(=O)O)CCN(CC(=O)*)CC1
ENDPOINT: pIC50
The meaning of pIC50 here: minus log10 of the concentration in molar units.

Incoming: Which pIC50 reading was recorded for the substance {NOTA}-RTCESASHKFEGPCLRDSNCANVCKTEGFHGGKCKGLRRRCFCTKHC (disulfide 3-47, 14-34, 20-41, 24-43) [NOTA-KCNA3P] ?
Outgoing: 7.30
